Entries and their TGI values follow.
Tested on: SN12C renal
Test: NCI tumour cell line growth inhibition, 48 h

Ask: For the compound C=CCN=C1NC(=O)C(CC(=O)Nc2cccc(Cl)c2)S1 (stereo not drawn) , what TGI is on record?
Reply: > 100 µM

Ask: For the compound CCOC(=O)C(=CNc1ccc(S(N)(=O)=O)cc1)C(=O)OCC , what TGI is on record?
Reply: > 100 µM

Ask: For the compound C[C@H](CCC(=O)O)[C@H]1CC[C@H]2[C@@H]3[C@H](O)[C@H](O)[C@@H]4C[C@H](O)CC[C@]4(C)[C@H]3CC[C@]12C , what TGI is on record?
Reply: > 100 µM

Ask: For the compound O=C1NN(C(=O)c2ccccc2)C(c2ccc(Cl)c(Cl)c2)=C/C1=C\c1ccccc1[N+](=O)[O-] , what TGI is on record?
Reply: > 6.75 µM

Ask: For the compound Clc1ccc(-c2nnc(-c3nn(-c4ccccc4)c4nc5ccccc5nc34)o2)cc1 , what TGI is on record?
Reply: > 100 µM

Ask: For the compound N/C(=C\c1ccc(/C=C(\NC(=O)c2ccccc2)c2nc3c([nH]2)C(=O)c2ccccc2C3=O)cc1)c1nc2c([nH]1)C(=O)c1ccccc1C2=O , what TGI is on record?
Reply: 32.8 µM

Ask: For the compound CC(=O)OC1CC2C(C)(C)C(=O)C=C[C@]2(C)C2CCC3(C)C(c4ccoc4)C(=O)C4OC43[C@]12C (stereo partly drawn) , what TGI is on record?
Reply: 30.7 µM

Ask: For the compound C[C@]12CC[C@@H]3c4ccc(O)cc4CC[C@H]3[C@@H]1CC(Cc1ccccc1)(Cc1ccccc1)C2=O , what TGI is on record?
Reply: 29.2 µM

----------
Entries and their TGI values follow.
Test system: HL-60(TB) leukemia
Assay: NCI tumour cell line growth inhibition, 48 h

Ask: Look up TGI with HL-60(TB) leukemia for this compound: CC(=O)NNc1ncc(C(=O)/C=C/c2ccccc2C)s1
Reply: > 100 µM

Ask: Look up TGI with HL-60(TB) leukemia for this compound: CCOC(=O)C(=CNc1ccc(S(N)(=O)=O)cc1)C(=O)OCC
Reply: > 100 µM

Ask: Look up TGI with HL-60(TB) leukemia for this compound: NC(CCl)=NCC12CC3CC(CC(C3)C1)C2
Reply: 3.78 µM

----------
Tested on: SK-MEL-2 melanoma
Test: NCI tumour cell line growth inhibition, 48 h
endpoint label: TGI (µM)
Provide only the numeric value, understood in µM.

Here is how some compounds turned out for TGI.
compound	result unit	TGI
Oc1cccc2ccc(SSc3ccc4cccc(O)c4n3)nc12	µM	39.9
CCCC(=O)Oc1c2ccsc2c(OC(=O)CCC)c2ccsc12	µM	1.86
Cc1ccc(C(=O)C2C=C(c3ccc(C)cc3)SC3C=CCC32)cc1 (configuration not stated)	µM	36.8
N=C1c2ccccc2C(=O)c2c(NCCNCCO)ccc(O)c21	µM	33.5
CCCC[C@H](CCc1ccccc1)N(C(=O)OC)N1CCC[C@H]1COC	µM	34.1

We next turn to a different compound, shown below.
Ask: For the compound Cn1c(=O)nc2n(-c3ccc(F)c(F)c3)c3ccccc3nc-2c1=O , what TGI is on record?
Reply: 55.3

----------
Tested on: SF-268 CNS
Assay: NCI tumour cell line growth inhibition, 48 h
endpoint label: TGI

Ask: For the compound CN1C(c2ccccc2)CC(=NO)CC1c1ccccc1 (stereo unspecified) , what TGI is on record?
Reply: > 100 µM

----------
System: SNB-19 CNS
Assay: NCI tumour cell line growth inhibition, 48 h
endpoint label: GI50

Ask: For the compound COc1ccc2c(c1)/C(=C\c1c(-c3ccccc3)nc3sccn13)C(=O)N2 , what GI50 is on record?
Reply: > 21.5 µM

Ask: For the compound [Mn+3].[O-][Cl+3]([O-])([O-])O.[O-]c1ccccc1C=NCCN1CC1.[O-]c1ccccc1C=NCCN1CC1 , what GI50 is on record?
Reply: 44.6 µM

Ask: For the compound C/C(COc1ccc2oc(-c3ccccc3)cc(=O)c2c1)=N\O , what GI50 is on record?
Reply: 26.7 µM

Ask: For the compound CC1(C)CC[C@]2(C(=O)NCCNCCN)CC[C@]3(C)C(=CC[C@@H]4[C@@]5(C)CCC(=O)C(C)(C)[C@@H]5CC[C@]43C)[C@@H]2C1 , what GI50 is on record?
Reply: 1.73 µM

Ask: For the compound O=C(N/N=C\c1ccc(N(CCCl)CCCl)cc1)c1cccnc1 , what GI50 is on record?
Reply: 45 µM

Ask: For the compound C#Cc1cccc(Nc2nc(C)nc3cc(NC(=O)CCl)ccc23)c1 , what GI50 is on record?
Reply: 1.29 µM

Ask: For the compound Cn1cnc(SC2=CC(=O)C=C3S[C@H]4C[C@@]23c2c(c(O)c3c5c2=NCCC=5C=N3)N4)c1CC(N)C(=O)O (some centres not stated) , what GI50 is on record?
Reply: 19.3 µM

----------
Entries and their TGI values follow.
Test system: M19-MEL melanoma
Assay: NCI tumour cell line growth inhibition, 48 h
Provide only the numeric value, understood in µM.

Here is how some molecules turned out for TGI.
molecule	assay target	result unit	TGI
N=C1c2ccccc2C(=O)c2c(NCCNCCO)ccc(O)c21	M19-MEL melanoma	µM	17.3
NCCCNCc1c2ccccc2c(CNCCCN)c2ccccc12	M19-MEL melanoma	µM	35.4
CC(=O)OC1CC2C(C)(C)C(=O)C=C[C@]2(C)C2CCC3(C)C(c4ccoc4)C(=O)C4OC43[C@]12C (some centres not stated)	M19-MEL melanoma	µM	32.5
C/C=C(\C)C(=O)OC1C2C(C)=CC(=O)C(O)C2(C)C2C3(O)OCC24C1OC(=O)C(OC(C)=O)C4C(C)C3O (configuration not stated)	M19-MEL melanoma	µM	0.0455

We next turn to a different molecule, shown below.
Ask: For the molecule CCCCCCCCCCNC(=S)OC , what TGI is on record?
Reply: 69.4

----------
Test system: SK-OV-3 ovarian
Assay: NCI tumour cell line growth inhibition, 48 h
endpoint label: TGI

Here is how some compounds turned out for TGI.
compound	assay target	observed measurement
Cc1ccccc1SC(/C=C/NNC1=NC(c2ccccc2)C(c2ccccc2)=NN1)c1ccccc1 (centres undefined)	SK-OV-3 ovarian	45.3 µM
COc1ccc2c(c1)c1ccc3c(c1n2C)C(=O)C=CC3=O	SK-OV-3 ovarian	41.3 µM
C=C(C)[C@@]12C[C@H](OC(=O)[C@H](O)[C@@H](NC(=O)c3ccccc3)c3ccccc3)C(C)=C1[C@@H](OC(C)=O)C(=O)[C@@]1(C)C([C@@H]2OC(=O)c2cc(F)cc(F)c2)C2(OC(C)=O)CO[C@@H]2C[C@@H]1O (some centres undefined)	SK-OV-3 ovarian	> 10 µM

Ask: For the compound OCC#Cc1ccccc1C#Cc1ccc(C#Cc2ccccc2C#CCO)cc1 , what TGI is on record?
Reply: > 100 µM

Ask: For the compound Cc1ccc2c(ccc3ncc(CNc4ccc(NS(C)(=O)=O)cc4)c32)[nH]1 , what TGI is on record?
Reply: 84.2 µM

Ask: For the compound CC1=C(C(=O)O)N2C(=O)[C@@H](NC(=O)C(c3ccccc3)N3CSC(=S)N(C(C)C)C3)C2SC1 (some centres undefined) , what TGI is on record?
Reply: > 100 µM

----------
System: COLO 205 colon
Experiment: NCI tumour cell line growth inhibition, 48 h
Entries and their TGI values follow.

O=c1cc(-c2ccccc2)oc2c(O)c(O)ccc12 53.9 µM
CN1/C(=C\N=O)C(C)(C)N(O)C1(C)C > 100 µM
Cc1cccc2c(=O)c3c(sc12)c(NCCCN)nc1ccccc13 3.23 µM
C[C@H](CCC(=O)O)[C@H]1CC[C@H]2[C@@H]3[C@@H](O)C[C@@H]4C[C@H](O)CC[C@]4(C)[C@H]3C[C@H](O)[C@]12C > 100 µM

We next turn to a different compound, shown below.
Ask: Look up TGI with COLO 205 colon for this compound: CSc1c(C(N)=S)c(N)nn1-c1ccccc1
Reply: > 100 µM

----------
Entries and their TGI values follow.
Tested on: HCC-2998 colon
Experiment: NCI tumour cell line growth inhibition, 48 h

Here is how some molecules turned out for TGI.
molecule	endpoint label	observed measurement
O=C(O)c1nn(-c2ccc(Cl)cc2)c2c1C(=O)c1ccccc1C2=O	TGI	> 100 µM
C=C1C2CC(OC(C)=O)C3(C)C(c4ccoc4)OC(=O)[C@@H](O)[C@]13OC1C[C@H](OC(C)=O)C(C)(C)[C@H](C(O)C(=O)OC)[C@]12C (some centres not stated)	TGI	> 100 µM
N#Cc1c(N)c(C(=O)c2ccc3c(c2)OCCO3)n2c1CCCC2	TGI	> 93.1 µM
COc1ccc(/C(=N/OCCCC(=O)O)c2cccs2)cc1	TGI	> 100 µM
C=C[C@@H]1CCC/C=C/[C@@H]2C[C@H](O)C[C@H]2[C@H](O)/C=C/C(=O)O1	TGI	2.92 µM

Ask: Look up TGI with HCC-2998 colon for this molecule: Brc1ccc2nc(-c3cccs3)nc(N3CCN(c4ccccc4)CC3)c2c1
Reply: > 100 µM

Ask: Look up TGI with HCC-2998 colon for this molecule: CC(C)(C)c1ccc(NS(=O)(=O)c2ccc(N)cc2)cc1
Reply: 39.5 µM

Ask: Look up TGI with HCC-2998 colon for this molecule: CC(C)(C)c1cc[n+](C[n+]2ccc(C(C)(C)C)cc2)cc1
Reply: > 100 µM

Ask: Look up TGI with HCC-2998 colon for this molecule: CCCCNC(=O)Oc1ccc(/C(=C(\C)c2ccc(OC)cc2)c2ccc(OCCN3CCCCC3)cc2)cc1
Reply: 11.5 µM

Ask: Look up TGI with HCC-2998 colon for this molecule: Oc1ccc(Br)cc1C=NC1CCCCC1
Reply: > 100 µM

Ask: Look up TGI with HCC-2998 colon for this molecule: Oc1ccc(O)c(-n2cccn2)c1
Reply: > 100 µM

Ask: Look up TGI with HCC-2998 colon for this molecule: O=P(O)(O)c1ccc2c(c1)OCCOCCOCCOCCO2
Reply: > 100 µM

Ask: Look up TGI with HCC-2998 colon for this molecule: CC[C@H](C)[C@H](NC(=O)c1ncccn1)C(=O)N(C)[C@H](C[C@@H](OC(C)=O)c1nc(C(=O)N[C@@H](Cc2ccccc2)C[C@H](C)C(=O)OC)cs1)C(C)C
Reply: > 25 µM

Ask: Look up TGI with HCC-2998 colon for this molecule: Cc1cccc2c(=O)c3c(sc12)c(NCCCN)nc1ccccc13
Reply: 3.39 µM

Ask: Look up TGI with HCC-2998 colon for this molecule: CN1/C(=C\N=O)C(C)(C)N(O)C1(C)C
Reply: > 100 µM

Ask: Look up TGI with HCC-2998 colon for this molecule: Oc1c(CN2CCCCC2)ccc2cccnc12
Reply: 32.8 µM

Ask: Look up TGI with HCC-2998 colon for this molecule: N[C@@H](Cc1c[nH]c2ccccc12)C(=O)NC1CCN(Cc2c[nH]c3ccc(Cl)cc23)CC1
Reply: 13.4 µM
